MIC values, listed per item
Tested on: Staphylococcus aureus
Assay: Antibacterial activity against Staphylococcus aureus ATCC 29213 assessed as bacterial growth inhibition
Format: functional
Just the number please, in µg/mL, no unit attached.

Below: 2 molecules and their reported MIC.
MOLECULE: COc1ccc(-n2c3cssc-3c(NC(=O)NCCOC(=O)CCCCCCC(=O)c3c(O)cc(C)oc3=O)c2=O)c(OC)c1
REPORTED_PROPERTY: MIC
ASSAY_VALUE: 128
//
MOLECULE: COc1ccc(-n2c3cssc-3c(NC(=O)NCCOC(=O)CCCCC(=O)c3c(O)cc(C)oc3=O)c2=O)c(OC)c1
REPORTED_PROPERTY: MIC
ASSAY_VALUE: 4

Let us move to another entry and its MIC.
Incoming: Requested read-out: MIC. Entry: O=C(O)c1cn(C2CC2)c2cc(N3CCNCC3)c(F)cc2c1=O [CIPROFLOXACIN]
Outgoing: 0.078

---

System: HepG2
Test: Cytotoxicity against human HepG2 cells assessed as reduction in cell viability by MTT assay
Format: cell-based
REPORTED_PROPERTY: IC50 (µM)
Record the value in µM, omitting the unit from your answer.

STRUCTURE_SMILES: COc1ccc(-n2c3cssc-3c(NC(=O)OCCOC(=O)CCCCC(=O)c3c(O)cc(C)oc3=O)c2=O)c(OC)c1
UNIT_TEXT: µM
ASSAY_VALUE: 9.43
//
STRUCTURE_SMILES: COc1ccc(-n2c3cssc-3c(NC(=O)OCCOC(=O)CCCC(=O)c3c(O)cc(C)oc3=O)c2=O)c(OC)c1
UNIT_TEXT: µM
ASSAY_VALUE: 1.97
//
STRUCTURE_SMILES: COc1ccc(-n2c3cssc-3c(NC(=O)N(C)CCOC(=O)CCCC(=O)c3c(O)cc(C)oc3=O)c2=O)c(OC)c1
UNIT_TEXT: µM
ASSAY_VALUE: 5.32

Now examine the next entry.
Incoming: Which IC50 reading was recorded for the compound COc1ccc(-n2c3cssc-3c(NC(=O)CCCC(=O)c3c(O)cc(C)oc3=O)c2=O)c(OC)c1 ?
Outgoing: 29

---

Test system: Staphylococcus aureus
Test: Antibacterial activity against Staphylococcus aureus ATCC 29213 assessed as bacterial growth inhibition
Type: functional
Simple rule here: MIC less than 2 µg/mL is TRUE, otherwise FALSE.

STRUCTURE_SMILES: COc1ccc(-n2c3cssc-3c(NC(=O)CCCCCCC(=O)c3c(O)cc(C)oc3=O)c2=O)c(OC)c1
TARGET: Staphylococcus aureus
CATEGORY: FALSE

Incoming: Given COc1ccc(-n2c3cssc-3c(NC(=O)OCCOC(=O)CCCC(=O)c3c(O)cc(C)oc3=O)c2=O)c(OC)c1 , is recorded MIC strictly lower than 2 µg/mL?
Outgoing: TRUE

Incoming: In the record for CO[C@H]1/C=C/O[C@@]2(C)Oc3c(C)c(O)c4c(O)c(c(/C=N/N5CCN(C)CC5)c(O)c4c3C2=O)NC(=O)/C(C)=C\C=C\[C@H](C)[C@H](O)[C@@H](C)[C@@H](O)[C@@H](C)[C@H](OC(C)=O)[C@@H]1C , is MIC less than 2 µg/mL?
Outgoing: TRUE

Incoming: Input COc1ccc(-n2c3cssc-3c(NC(=O)N(C)CCOC(=O)CCCCCCC(=O)c3c(O)cc(C)oc3=O)c2=O)c(OC)c1 ; condition: MIC strictly below 2 µg/mL. Does it hold?
Outgoing: FALSE

Where these numbers come from: ChEMBL document CHEMBL4627364
